# Test Target: integrin alphaIIb beta3 (UniProt P08514;P08514;P05106 P08514:32-887,P08514:891-1039,P05106:27-788)
# Assay Explanation: inhibition; inhibition of biotinylated fibrinogen binding (6 nM), room temperature
# Cond: tags: Enzyme Research Laboratories
pIC50: −log10 of the molar value.

| Binder | pIC50 |
| --- | --- |
| 17.16 (ssRNA, 2'-F C and U) RNA: GGGAGACAAGAAUAAACGCUCAAUUCAACGCUGUGAAGGGCUUAUACGAGCGGAUUACCCUUCGACAGGAGGCUCACAACAGGC | 8.19 |
